B1: TPR t1 (parent)
chain: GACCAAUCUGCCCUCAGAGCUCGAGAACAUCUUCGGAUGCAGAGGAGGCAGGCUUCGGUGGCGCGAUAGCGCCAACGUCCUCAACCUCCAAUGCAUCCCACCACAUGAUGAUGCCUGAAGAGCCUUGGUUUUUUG

# Variants of: B1
# PROTOCOL_DESCRIPTION: polymerase ribozyme fitness, log enrichment relative to wild type (log ratio); higher = more active; in vitro selection for triplet polymerase activity
Categorized via polymerase ribozyme fitness (log ratio): bin A (below -4), bin B (-4 to below -2), bin C (-2 or more)

SEQUENCE_TEXT | DISCRETE_LABEL
GACCAAUCUGCCCUCAGAGCUCGAGAACAUCUUCGGAUGCAGAGGGGGCAGGCUUCGGUGGCGCGAUAGCGCCAACGUCCUCAACCUCCACUACAUCCCACCACAUGAUGAUGCCUGAAGAGCCUUGGUUUUUUG | bin B
GACGCAUCUGCCCUCAGAGCUCGAGAACAUCUUCGGAUGCAGAGGAGGCAGGCUUCGGUGUCGCGAUAGCGCCAACGUCCUCACCCUCCAAUGCAUCCCACCACAUGAAGAUGCCUGAAGAGCCUUGGUUGUUUG | bin A
GACCAAUCUGCCCUCAGAGCUCGAGAACAUCUUCGGAUGCAGAGGAGGCAGGCUUCGGUGGCGCGAUAGCGCCAACGUCCUCAACCUCCAAUGCAUCCCACCACACUAUGAUGCCUGAAGAGCCUUGGUUUUUUG | bin A
GACCAAUCUGCCCUCAGAGCUCGAGAACAUCUUCGGAUGCAGUGGAGGCAGGCUUCGGUGGCGCGAUAGCGCCAACGUCCUCAACCUCCAAUCCAUCCCACCACAUGAUGAUGCCUCAAGAGCCUUGGUUUUUUG | bin A
GACCAAUCUGCCCUCAGAGAUCGAGAAUAUCUUCGGAUUCAGAGGAGGCAGGCUUCGGUGGCGCGAUAGCUCCAACGUCCUCAACCUCCAAUGCAUUCCACCACAUGAUGAUGCCUGAAGAGACUUGGUUUUUUG | bin A

[in] Hey, which category is "GACCAAUCUGCACUCAGAGCUCGAGAACAUCUUCGGCUGCAGAGGAGGCAGGCUUCGGUGGCGCGAUAGCGCCAACGUCCUCAACCUCCAAUGCAUCCCACCACAUGAUGAUGCCUGAAGAGCCUUGGUUUUUUG" in, do you know?
[out] bin C

[in] # bin lookup: classify "GACCAAUCUGCCCUAAGAGCUCGAGAACAUCUUCGGAUACAGAGGAGGCAGGCUUCGGUGGCGCGAUAACGCCAACGUCCUCAACCGCCAAUGCAUCCCACCACAUGAUGAGGCCUGAAGAGCCUUGGUUUUUUG" by its polymerase ribozyme fitness (log ratio)
[out] bin A

[in] Which polymerase ribozyme fitness (log ratio) band matches "GACCAAUCUGCCCUCAGAGCUCGAGAACAUCUUCGGAUGCAUAGGAGGCUGGCUUCGGUGGCGCGAUAUCGCCAACGUCCUCAACCUCCAAUGCAUCCCACCACGUGAUGAUGCCUGAAGAGCCUUGGUUUUUUG" ?
[out] bin B

[in] // return the class label for "GACCAAUCUGCCCUCAGAGCUCGAGAACAUCUUCGGAUGCAGAGGAGGCAGGAUUCGGUGGCGCGAUAGUGCCAACGUCCUCAACCUCCAAUGCAUCCCACCACAUGAUGAUGCCUAAAGCGCCUUGGUUUUUUG"
[out] bin C

[in] Any idea which band "GACCAAUCUGCCCUCAGAGCUCGAGAACAUCUUCGGAUGCAGAGGAGGCAGGCUUCGGUGGCGCGAUAGCGCCAACGUCCUCAACCUCCAAUUCAUCCCACAACAUGAUGAUGCCUGAAAAGCCUUGGUUUUUUG" is in?
[out] bin B

From: the RNAGym collection of RNA variant scans (doi:10.1073/pnas.2313332121)
